System Tested: Trace amine-associated receptor 1 (Mus musculus)
Sequence (Q923Y8 whole entry): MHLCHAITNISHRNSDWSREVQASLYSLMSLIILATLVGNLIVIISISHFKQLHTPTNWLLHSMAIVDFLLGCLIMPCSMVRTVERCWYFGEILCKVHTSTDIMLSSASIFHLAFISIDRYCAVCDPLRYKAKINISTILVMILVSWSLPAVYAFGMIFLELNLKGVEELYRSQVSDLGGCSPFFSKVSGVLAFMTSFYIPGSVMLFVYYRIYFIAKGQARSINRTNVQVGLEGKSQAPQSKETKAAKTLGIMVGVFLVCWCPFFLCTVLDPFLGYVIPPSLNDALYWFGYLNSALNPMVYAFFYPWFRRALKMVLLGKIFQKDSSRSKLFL
Procedure Text: Activity at mouse TAAR1 by measuring cAMP accumulation in HEK293 cells
Please respond with reported pEC50 for every item in the list.
Give bare numbers, as −log10 of the molar value.

>>> reported_measurement("NCCc1ccc(OCc2ccc(C(F)(F)F)cc2)c(I)c1")
6.55

Please state pEC50 for every compound in the list that follows.
1. NCCc1ccc(OCc2ccc(C(F)(F)F)cc2)cc1
2. NCCc1ccc(OCc2ccc(F)cc2)cc1

1. 7.69
2. 7.41

###

System Tested: Trace amine-associated receptor 1 (Rattus norvegicus)
Sequence (Q923Y9 whole entry): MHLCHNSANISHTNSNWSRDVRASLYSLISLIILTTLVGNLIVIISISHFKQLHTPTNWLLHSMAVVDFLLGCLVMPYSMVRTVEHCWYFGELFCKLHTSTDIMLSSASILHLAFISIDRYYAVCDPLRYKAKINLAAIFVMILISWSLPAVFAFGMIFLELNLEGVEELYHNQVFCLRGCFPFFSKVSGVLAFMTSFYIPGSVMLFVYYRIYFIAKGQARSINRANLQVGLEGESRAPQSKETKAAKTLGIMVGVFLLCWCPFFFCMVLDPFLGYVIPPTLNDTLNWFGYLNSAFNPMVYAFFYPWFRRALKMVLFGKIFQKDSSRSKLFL
Procedure Text: Activity at rat TAAR1 by measuring cAMP accumulation in HEK293 cells
Observable: pEC50
Answers are plain numbers, as −log10 of the molar value.

>>> reported_measurement("CNCCc1ccc(OCc2ccccc2)c(I)c1")
7.17
>>> reported_measurement("NCCc1ccc(OCc2ccc(C(F)(F)F)cc2)cc1")
7.26
>>> reported_measurement("NCCc1ccc(OCc2ccccc2)c(I)c1")
7.11

--- query ---
Reported pEC50 ( NCCc1ccc(Oc2ccccc2)c(I)c1 ) = 8.62
